EXPERIMENTAL TARGET: Transcription factor Jun (Homo sapiens, UniProt P05412)
Sequence (P05412 whole entry): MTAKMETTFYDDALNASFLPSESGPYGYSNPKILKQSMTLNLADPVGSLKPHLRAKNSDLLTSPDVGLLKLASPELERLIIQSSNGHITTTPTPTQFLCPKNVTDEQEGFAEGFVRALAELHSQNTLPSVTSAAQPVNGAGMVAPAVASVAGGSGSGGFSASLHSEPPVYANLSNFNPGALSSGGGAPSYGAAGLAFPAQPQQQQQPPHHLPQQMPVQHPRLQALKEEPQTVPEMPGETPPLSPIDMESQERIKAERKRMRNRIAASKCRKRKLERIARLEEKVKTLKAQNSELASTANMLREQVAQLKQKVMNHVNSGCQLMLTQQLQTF
ASSAY OVERVIEW: Inhibition of AP1 expressed in HEK293 cells assessed as inhibition of PMA-induced transcriptional activation treated 24 hrs before PMA challenge by luciferase reporter gene assay
ENDPOINT: IC50 (µM)
# value in µM; strip the unit string

Record lookup: for Transcription factor Jun (Homo sapiens, UniProt P05412), what IC50 belongs to O=c1c2ccccc2nc(-c2sc(Nc3ccc(Cl)cc3)nc2-c2ccccc2)n1-c1ccc(Cl)cc1 ? 4.3

Record lookup: for Transcription factor Jun (Homo sapiens, UniProt P05412), what IC50 belongs to CCOC(=O)Nc1nc(-c2ccccc2)c(-c2nc3ccccc3c(=O)n2-c2ccccc2)s1 ? 5.7

Record lookup: for Transcription factor Jun (Homo sapiens, UniProt P05412), what IC50 belongs to COc1ccc(-n2c(-c3sc(Nc4ccc(Cl)cc4)nc3-c3ccccc3)nc3ccccc3c2=O)cc1 ? 14

Record lookup: for Transcription factor Jun (Homo sapiens, UniProt P05412), what IC50 belongs to CCOC(=O)Nc1nc(C)c(-c2nc3ccccc3c(=O)n2-c2ccc(Cl)cc2)s1 ? 10

Record lookup: for Transcription factor Jun (Homo sapiens, UniProt P05412), what IC50 belongs to CNc1nc(C)c(-c2nc3ccccc3c(=O)n2-c2ccc(Cl)cc2)s1 ? 3
